Target: T1, CD123-his-biotin抗原 (Homo sapiens (Human), UniProt P26951 19-305, biotin label (site not stated))
T1 construct: Bought from SinoBiological and biotin-labelled; also called CD123-Biotin; CD123抗原; not shown: his tag
T1 sequence: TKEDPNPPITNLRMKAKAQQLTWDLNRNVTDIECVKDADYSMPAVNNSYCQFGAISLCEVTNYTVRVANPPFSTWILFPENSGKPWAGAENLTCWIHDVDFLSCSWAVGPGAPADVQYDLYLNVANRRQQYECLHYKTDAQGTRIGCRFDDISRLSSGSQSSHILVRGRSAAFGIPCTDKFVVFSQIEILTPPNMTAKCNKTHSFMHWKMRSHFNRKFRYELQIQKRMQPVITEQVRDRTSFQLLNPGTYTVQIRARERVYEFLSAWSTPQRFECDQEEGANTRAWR
Assay: BLI (Octet RED96), CD123-Biotin on AR2G sensor, scFv periplasmic extract as analyte
QUANTITY: koff

BINDER	TEST VALUE
4C3 (scFv, V domains shown) VH: QVQLQQPGAELVRPGASVKLSCKASGYTFTQYWMNWVKQRPDQGLEWIGRIDPFDSETHYNLQFKDKAILTVDKSSSTAYMQLSSLTSEDSAVYYCARGNWDDYWGQGTTLTVSS VL: DVQITQSPSYLAASPGETITINCRASKSISKDLAWYQEKPGKTNKLLIYSGSTLQSGIPSRFSGSGSGTDFTLTISSLEPEDFAMYYCQQHNKYPYTFGGGTKLEIK	0.000322 s⁻¹
4D1 (scFv, V domains shown, also called 抗体4D1) VH: QVQLQQPGAELVRPGASVKLSCKASGYQFTSYWMNWVKQRPDQGLEWIGRIDPYDSETHYNQKFKDKAILTVDKSSSTAYMQLSSLTSEDSAVYYCARGNWDDYWGQGTTLTVSS VL: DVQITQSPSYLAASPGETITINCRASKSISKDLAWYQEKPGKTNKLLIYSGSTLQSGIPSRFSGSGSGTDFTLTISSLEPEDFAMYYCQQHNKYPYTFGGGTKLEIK	0.000198 s⁻¹
6G3 (scFv, V domains shown, also called 抗体6G3) VH: QVQLQQPGAELVRPGASVKLSCKASGYTFTSYWMNWVKQRPDQGLEWIGRIDPYDSETHYNQKFKDKAILTVDKSSSTAYMQLSSLTSEDSAVYYCARGNWDDYWGQGTTLTVSS VL: DVQITQSPSYLAASPGETITINCRASKSISKDLAWYQEKPGKTNKLLIYSSSRLSSGIPSRFSGSGSGTDFTLTISSLEPEDFAMYYCQQHNKYPYTFGGGTKLEIK	0.000192 s⁻¹
